Catalogue of IC50 values
Target: Prostaglandin G/H synthase 2 (Mus musculus, UniProt Q05769)
Sequence (Q05769 whole entry): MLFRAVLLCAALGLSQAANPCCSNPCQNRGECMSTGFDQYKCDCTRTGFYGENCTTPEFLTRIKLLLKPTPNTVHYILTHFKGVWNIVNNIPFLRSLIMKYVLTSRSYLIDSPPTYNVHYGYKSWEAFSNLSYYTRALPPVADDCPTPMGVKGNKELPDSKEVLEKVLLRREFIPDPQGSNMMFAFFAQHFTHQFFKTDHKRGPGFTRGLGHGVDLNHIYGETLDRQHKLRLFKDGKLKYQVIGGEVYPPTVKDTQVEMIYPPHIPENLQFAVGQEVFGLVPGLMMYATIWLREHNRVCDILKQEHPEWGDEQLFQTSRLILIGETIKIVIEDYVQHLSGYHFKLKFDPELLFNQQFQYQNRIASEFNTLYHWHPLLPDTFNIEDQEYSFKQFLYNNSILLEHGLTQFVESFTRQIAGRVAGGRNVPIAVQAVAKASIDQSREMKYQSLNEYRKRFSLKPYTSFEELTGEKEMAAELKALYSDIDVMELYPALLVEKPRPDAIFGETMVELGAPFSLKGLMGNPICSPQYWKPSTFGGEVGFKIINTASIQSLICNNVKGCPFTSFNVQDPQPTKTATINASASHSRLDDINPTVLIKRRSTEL
Measured Property: IC50

compound=CC(C)(C)c1cc(/C=C2\NC(=S)NC2=O)cc(C(C)(C)C)c1O measured_property=IC50 value_reported="83 nM"
compound=CN1C(NC(=N)N)=NC(=O)/C1=C/c1cc(C(C)(C)C)c(O)c(C(C)(C)C)c1 measured_property=IC50 value_reported="750 nM"
compound="CC(C)(C)c1cc(C=C2SC(=N)NC2=O)cc(C(C)(C)C)c1O [DARBUFELONE]" measured_property=IC50 value_reported="69 nM"
compound=CONC1=NC(=O)/C(=C/c2cc(C(C)C)c(O)c(C(C)C)c2)S1 measured_property=IC50 value_reported="> 20000 nM"
compound=CSC1=NC(=O)/C(=C/c2cc(C(C)(C)C)c(O)c(C(C)(C)C)c2)S1 measured_property=IC50 value_reported="1600 nM"
compound=CC(C)(C)c1cc(/C=C2\SC(NC#N)=NC2=O)cc(C(C)(C)C)c1O measured_property=IC50 value_reported="230 nM"
compound=CC(C)(C)c1cc(/C=C2\SC(=S)NC2=O)cc(C(C)(C)C)c1O measured_property=IC50 value_reported="390 nM"
compound=C/C(=C1/SC(N=C(N)N)=NC1=O)c1cc(C(C)(C)C)c(O)c(C(C)(C)C)c1 measured_property=IC50 value_reported="180 nM"
compound=CONC1=NC(=O)/C(=C/c2cc(C(C)(C)C)c(O)c(C(C)(C)C)c2)O1 measured_property=IC50 value_reported="790 nM"
compound=CC(C)(C)c1cc(/C=C2\OC(N=C(N)N)=NC2=O)cc(C(C)(C)C)c1O measured_property=IC50 value_reported="440 nM"
compound=CC(C)(C)c1cc(/C=C2\SC(=O)NC2=O)cc(C(C)(C)C)c1O measured_property=IC50 value_reported="60 nM"
compound=CC(C)(C)c1cc(/C=C2\OC(=O)NC2=O)cc(C(C)(C)C)c1O measured_property=IC50 value_reported="71 nM"
compound=CC(C)c1cc(/C=C2\SC(N=C(N)N)=NC2=O)cc(C(C)C)c1O measured_property=IC50 value_reported="190 nM"
